target under test: Aβ42 (Homo sapiens)
Sequence (P05067 672-713): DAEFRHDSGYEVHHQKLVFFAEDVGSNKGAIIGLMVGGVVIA
run description: Th-T (thioflavin-T) assay of Aβ42 aggregation
Assay type: biochemical
condition notes: Aβ42 aggregation time course, reading M135

| compound | Th-T fluorescence, mean of three wells |
| --- | --- |
| C=C1CCC2C(C)(CC(=O)C=C(C)C)C(O)CCC2(C)C1Cc1c(O)c(C)c(C)oc1=O (centres unmarked) [Compound 7] | 3.416 |
| C=C1CC[C@H]2[C@]3(C)C[C@H](C=C(C)C)O[C@H]3CC[C@]2(C)[C@@H]1Cc1c(OC)oc(C)c(C)c1=O [Compound 24] | 3.85 |
| C=C1CC[C@H]2[C@]3(C)C[C@H](C=C(C)C)O[C@H]3CC[C@]2(C)[C@@H]1Cc1c(O)c(C)c(C)oc1=O [Compound 6, subglutinol B] | 3.053 |
| C=C1CCC2C(C)(CCC=C(C)C)C(O)CCC2(C)C1Cc1c(OC)oc(C)c(C)c1=O (centres unmarked) [Compound 11] | 3.342 |
| C=C1CCC2C(C)(CCC=C(C)C)C(O)CCC2(C)C1Cc1c(OC)oc(C)c(C)c1=O (centres unmarked) [Compound 15, viridoxin A hydrolysate] | 3.315 |
